biological target: dopamine D-2 receptors in rat corpus striatum (Rattus norvegicus, UniProt P61169); experiment: Inhibition of ^3H-spiperone (spiroperidol) binding to dopamine D-2 receptors in rat corpus striatum in vitro; conditions: 0.5 nM ^3H-spiperone, rat striatum membranes, 37° C., 10 min
Sequence (P61169 whole entry): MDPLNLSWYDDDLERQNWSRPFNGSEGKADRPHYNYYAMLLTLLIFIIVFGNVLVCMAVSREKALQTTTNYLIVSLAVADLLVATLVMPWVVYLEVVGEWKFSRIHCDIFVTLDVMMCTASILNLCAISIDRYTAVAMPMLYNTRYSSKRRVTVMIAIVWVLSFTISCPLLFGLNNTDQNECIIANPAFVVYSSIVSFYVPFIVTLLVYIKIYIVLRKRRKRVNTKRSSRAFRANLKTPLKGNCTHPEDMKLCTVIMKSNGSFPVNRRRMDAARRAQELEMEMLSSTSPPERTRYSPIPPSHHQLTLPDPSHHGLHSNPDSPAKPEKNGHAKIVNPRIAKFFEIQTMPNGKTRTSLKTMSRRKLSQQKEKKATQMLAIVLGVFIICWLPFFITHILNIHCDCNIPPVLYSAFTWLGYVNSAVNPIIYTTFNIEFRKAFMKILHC
Structures can show the parent of a compound that is named as a salt.
# if measured IC50 < 1000 nM: true (1)  # else: false (0)

Input line: hey, is IC50 for CNC(=O)N(C)CCN1CCC(n2cc(-c3ccc(F)cc3)c3cc(C)ccc32)CC1 [Compound 15a, hydrochloride] lower than 1000 nM or not?
Output line: false (0)

Input line: Now try "Cc1ccc2c(c1)c(-c1ccc(F)cc1)cn2C1CCN(CCN2CCN(C)C2=O)CC1" .
Output line: true (1)

Input line: Field entry: "CC(C)N1CCN(CCN2CCC(n3cc(-c4ccc(F)cc4)c4cc(C(F)(F)F)ccc43)CC2)C1=O"
Output line: false (0)

Input line: Same question, Cc1ccc2c(c1)c(-c1ccc(F)cc1)cn2C1CCN(CCNC(=O)N(C)C)CC1 [Compound 13b] this time
Output line: true (1)

Input line: What would you report for "Cc1ccc2c(c1)c(-c1ccc(F)cc1)cn2C1CCN(CCN2CCNC2=O)CC1" ?
Output line: true (1)

Input line: Entry to check: CC(C)N1CCN(CCN2CCC(n3cc(-c4ccc(F)cc4)c4ccccc43)CC2)C1=O [Compound 4l, hydrochloride, hydrate]
Output line: true (1)

Input line: Also "O=C1NCCN1CCN1CCC(n2cc(-c3ccc(F)cc3)c3cc(C(F)(F)F)ccc32)CC1" , if possible.
Output line: false (0)

Input line: Next record, please: "CC(C)N1CCN(CCN2CCC(n3cc(-c4ccc(F)cc4)c4cc(F)ccc43)CC2)C1=O"
Output line: true (1)

Input line: // next record Cc1ccc2c(c1)c(-c1ccc(F)cc1)cn2C1CCN(CCN2CCCC2=O)CC1 [Compound 4j, oxalate]
Output line: false (0)

Input line: Another: "O=C1NCCN1CCN1CCC(n2nc(-c3ccc(F)cc3)c3ccc(Cl)cc32)CC1"
Output line: false (0)

Input line: What do you get for "O=C1NCCN1CCN1CCC(n2cc(-c3ccccc3)c3cc(Cl)ccc32)CC1" ?
Output line: false (0)

Input line: Same again, this time with "Cc1c(-c2ccccc2)c2ccccc2n1C1CCN(CCN2CCNC2=O)CC1"
Output line: false (0)

Input line: Another: "O=C1NCCN1CCN1CCC(n2nc(-c3ccc(F)cc3)c3cc(C(F)(F)F)ccc32)CC1"
Output line: false (0)

Input line: Note, next up: Cc1ccc2c(c1)c(-c1ccc(F)cc1)c(Cl)n2C1CCN(CCN2CCN(C(C)C)C2=O)CC1 [Compound 27a]
Output line: false (0)

Input line: Same question, Cc1ccc2c(c1)C(c1ccc(F)cc1)CN2C1CCN(CCN2CCNC2=O)CC1 (stereo not shown) [Compound 18b] this time
Output line: false (0)
